# Target Desc: human melanin concentrating hormone receptor (MCHR1) (Homo sapiens, UniProt Q99705, A5T/E4Q)
# Sequence (Q99705 whole entry E4Q/A5T): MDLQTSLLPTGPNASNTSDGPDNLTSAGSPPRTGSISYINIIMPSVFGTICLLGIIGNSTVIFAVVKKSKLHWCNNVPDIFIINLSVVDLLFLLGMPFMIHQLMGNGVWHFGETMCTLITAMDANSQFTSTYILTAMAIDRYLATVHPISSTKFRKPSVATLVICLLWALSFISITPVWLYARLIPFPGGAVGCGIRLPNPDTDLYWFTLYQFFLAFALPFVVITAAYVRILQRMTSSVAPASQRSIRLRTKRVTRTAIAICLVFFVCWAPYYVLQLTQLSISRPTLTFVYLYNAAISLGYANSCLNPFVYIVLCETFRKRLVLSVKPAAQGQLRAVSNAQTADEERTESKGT
# Assay: Radioligand binding assay for assessment of MCHR1 activity
# Experimental Context: membranes from HEK-293 cells expressing mutated (E4Q, AST) hMCHR1; competition with 0.06-0.1 nM [Phe13,[125I]Tyr19]-MCH, 90 min
# Experimental: Compounds of Formula I were initially characterized in an in vitro binding assay to determine their Ki or ability to antagonize binding of a peptide agonist to the human melanin concentrating hormone receptor (MCHR1). Membranes from stably transfected HEK-293 cells expressing a mutated (E4Q, AST) hMCHR1 receptor were prepared by dounce homogenization and differential centrifugation. […] Inhibitory constants were determined by nonlinear least squares analysis using a four parameter logistic equation.
Experimental Readout: pKi
Scale note: pKi = -log10(concentration in M).

Below: 3 molecules and their reported pKi.
> print(dat)
                                   molecule  test.result
1  COc1cc(-n2ccc(SCc3ccc(Cl)cc3)nc2=O)ccc1OCC(C)(C)O         7.39
2  COc1cc(-n2ccc(C#Cc3ccccc3)nc2=O)ccc1OCC(C)(C)O         7.41
3  COc1cc(-n2ncc(CSc3ccc(Cl)cc3)cc2=O)ccc1OCC(C)(C)O [Example E1]         5.97

Query: State the recorded pKi for this entry: COc1cc(-n2cnc(SCc3ccc(Cl)cc3)cc2=O)ccc1OCC(O)C1CC1 (stereo not shown)
Response: 7.96

Query: State the recorded pKi for this entry: Cc1cc(-n2ccc(NCc3ccc(Cl)cc3)nc2=O)ccc1OCC(C)(C)O
Response: 6.34

Query: State the recorded pKi for this entry: COc1cc(-n2cnc(/C=C/c3ccc(Cl)cc3)cc2=O)ccc1OCC(C)(C)O
Response: 7.64

Query: State the recorded pKi for this entry: COc1cc(-n2cnc(CSc3ccc(F)cc3)cc2=O)ccc1OCC(C)(C)O
Response: 6.42
